- experimentalProtocol: yeast display, Sf9 membrane polyspecificity reagent, FACS + sequencing; frameworks hold sequencing errors
measurementKind: polyreactivity (PSR sort gate)

{"sequenceContent": "QVQLVESGGGLVQAGGSLRLSCAASGRTFADYAMGWNRQAPGKEREFVAAITYSGGSTYYADSVKGRFTISRDNAKNTVYLQMNSLKPEDTAVYYCNARPGSSYWYDAQWGEYGYWGQGTQVTVSS", "endpointResult": "high polyreactivity"}
{"sequenceContent": "QVQLVESGGGLVQAGGSLRLSCAASGFIFYSYAMGWYRQAPGKERELVAAISGSGGSTYYADSVKGRFTISRDNAKNTVYLQMNSLKPEDTAVYYCAAALTFRMDYWGQGTQVTVSS", "endpointResult": "high polyreactivity"}

* * *

- experimentalProtocol: yeast display, Sf9 membrane polyspecificity reagent, FACS + sequencing; frameworks hold sequencing errors

{"sequenceContent": "QVQLVESGGGLVQAGGSLRLSCAASGRTFGRYAMGWYRQAPGKERELVATITRGDSTYYADSVKGRFTISRDNAKNKVYLQMNSLKPEDTAVYYCAADWHRWYLDYDYWGQGTQVTVSS", "polyreactivity (PSR sort gate)": "low polyreactivity"}
{"sequenceContent": "QVQLVESGGGLFQAGASLRLSCAASGFIFTDYAIGWDTQAPGKERELVAAISSGGRTYYADSVKGRFTISRDNAKNTVYLQMNSLKPEDTAVYYCARGGRAEGWGQGTQVTVSS", "polyreactivity (PSR sort gate)": "high polyreactivity"}
{"sequenceContent": "QVQLVESGGGLVQAGGSLRLSCAASGNIFVYNAMGWYRQAPGKEREFVAAIDSGGSTYYADSVKGRFTISRDNAKNTVYLQMNSLKPEDTAVYYCARAVVQSRGPPRYKTPYDYWGQGTQVTVSS", "polyreactivity (PSR sort gate)": "low polyreactivity"}
{"sequenceContent": "QVHLVESGGGLVQAGGSLRLSCAASGGTFQDYTMGWYRQAPGKEREFVAAISLSGTRTYYADSVKGRFTISRDNAKNTVYFQMNSLKPEDSAVYYCSTSGPQYYSRNFDYWGQATQVTVSS", "polyreactivity (PSR sort gate)": "low polyreactivity"}
{"sequenceContent": "QVQLVESGGGLVQAGGSLRLSCAASGRTFKYYAMGWYRQAPGKERELVAAISNGGRTNYADSVKGRFTISRDNAKNTVYLQMNSLKPEDTAVYYCAKRSFYFSDYDYWGQGTQVTVSS", "polyreactivity (PSR sort gate)": "high polyreactivity"}
{"sequenceContent": "QVQLVESGGGLVQAGGSLRLSCAASGSTFYTNAMGWYRQAPGKERELVAASNYSGGSTYYADSVKGRFTISRDNAKNTVYLQMNSLKPEDTAVYYCATDLHWLVTKYGYWGQGTQVTVSS", "polyreactivity (PSR sort gate)": "low polyreactivity"}
{"sequenceContent": "QVQLVESGGGLVQAGGSLRLSCAASGRIFSLYTMGWYRQAPGKERELVATISIGGSTNYADSVKGRFTISRDNAKNTVYLQMNSLKPEDTAVYYCATDGSIGYNDRYTNDFDYWGQGTQVTVSS", "polyreactivity (PSR sort gate)": "low polyreactivity"}
{"sequenceContent": "QVQLVESGGGLVQAGGSLRISCAPSGSTSVQYAMGWYRQAPGKERELVAAIDRSGGSTSYADSVKGRFTISRDNAKNTVYLQMNSLKPEDTAVYYCNADPVRSTYSYDYWGQGTQVTVSS", "polyreactivity (PSR sort gate)": "low polyreactivity"}
{"sequenceContent": "QVQLVESGGGLVQAGGSLRLSCAASGSIFNYYAMGWYRQAPGKESELVAGITTSGGSTYYADSVKGRFTISRDNAKNTVYLQMNSLKPEDTAVYYCAAYDYISSTYFLYDYWGQGTQVTVSS", "polyreactivity (PSR sort gate)": "low polyreactivity"}
{"sequenceContent": "QVQLEESGGGLVQAGGSLRLSCAASGRIFDVNAMGWYRQAPGKERELVPRITSDGGTYYADSVKGRFTISRDNAKNTVYLQMNSLKPEDTAVYYCNAPYWFSPGYGGFEFGYDYWGQGTQVTVSS", "polyreactivity (PSR sort gate)": "low polyreactivity"}
{"sequenceContent": "QVQLVESGGGLVQAGGSLRLSCAASGRTFWYYAMGWYRHAPGKERELVAAITSGGSTNYADSVKGRFTISRDNAKNTVSLQMNSLKPEDTAVYYCAKLFRQRRYWDWYDYWGQGTQVTVSS", "polyreactivity (PSR sort gate)": "high polyreactivity"}
{"sequenceContent": "QVQLVESGGGLVQAGGSLRLSCAASGFNFSKYAMGWYRQAPGKERELVARINYNGGSTYYADSVKGRFTISRDNAKNTVYLQMNSLKPEDTAVYYCALVWRFSTRYYYWGQGTQVTVSS", "polyreactivity (PSR sort gate)": "high polyreactivity"}
{"sequenceContent": "QVQLVESGGGLVQAGGSLRLSCAAYGRIFSAYVMGWYRQAPGKERELVAAISSTGSTYYADSAKGRFTISRDNAKNTVYLQMNSLKPEDTAVYYCAKRFFQQGYYYWGQGTQVTVSS", "polyreactivity (PSR sort gate)": "low polyreactivity"}
{"sequenceContent": "QVQLQESGGGLVHAAGILRLSCAACGNIFPSAVMGWYRQALGKEREFVATLNSGSNTYYADSVKGRFTIRRDNAKNTVYLQMNSLKLEDTGVYYCAAYFNLPAWHTYWGQGTQVTVSS", "polyreactivity (PSR sort gate)": "low polyreactivity"}
{"sequenceContent": "QVQLVESGGGLVQAGGSLRLSCAASGNIFSSYAMGWYRQAPGKERELVARITTSAGRTYYADSVKGRFTISRDNAKNTVYLQMNSLKREETAVYSCAARGQSAYSIWRYYYWGQGTQVTVSS", "polyreactivity (PSR sort gate)": "high polyreactivity"}
{"sequenceContent": "QVQLVESGGGLVQAGGSLRLSCAASGRIFKYYAMGWYRPAPWKKRELVATISVSGGRTYYADSVKGRFTISRDNAKNTVYLQMNSLKPEDTAVYYCAAYSVIRRRVEYGYWGQGTQVTVSS", "polyreactivity (PSR sort gate)": "high polyreactivity"}
{"sequenceContent": "QVQLVESGGGLVQAGGSLRLSSAASGRIFSRYTMGWYRQAPGKERELVAAISWIGTRTYYADSVKGRFTISRDNAKNTVYLQMNSLKPEDTAVYYCNAVFGGYYGYVSNYKFDYWGHGTQVTVSS", "polyreactivity (PSR sort gate)": "high polyreactivity"}
{"sequenceContent": "QVQLVDSGGGLVQAGGSLRLSCAASGSIFPPYAMGWYRQAPGKERELVARISWSTSSTNYADSVKGRFTISRDNAKNTVYLQMNSLKPEVTAVYYCAADYYVFPGYDYWGQGTQVTVSS", "polyreactivity (PSR sort gate)": "high polyreactivity"}
{"sequenceContent": "QVQLVESGGGLVQAGGSHRLSCAASGLIIGYYDMGWYRQAPGQERELVAAITQSSGSTYYADSVKGRFTISRDNAKNTVYLQMNRLKREDTAVYYCARRKWKFADNYKLDYWGQGTQVTVSS", "polyreactivity (PSR sort gate)": "low polyreactivity"}
{"sequenceContent": "QVQLVESGGCLVQAGGSLRLSCAASGIIFTLYAMGWYRQAPGKEREIVAAISGSGGSTYYADSVKGRFTISRDNAKNTVYLQMNSLKPEDTAVYYCAARGVRGTGLDSRMYYWGQGTQVTVSS", "polyreactivity (PSR sort gate)": "high polyreactivity"}
{"sequenceContent": "QVQLVESGGGLVQAGGSLRLSCAASGSTFTVNAMGLYRQAPGKERELVAAINWSGGSTYYADSVKGRFTISRDHAKNTVYLQMNSLKPEDTAVYYCNKDREPYGYWSFDYWGQGTQVTLSS", "polyreactivity (PSR sort gate)": "low polyreactivity"}
